# Tested on: plasma cholesterol
# TEST_DESCRIPTION: Hypocholesterolemic activity, plasma cholesterol in mice fed test compound in diet
# Type: in vivo, OF1 strain mice
# CONDITIONS: Mus musculus, feed or water, 240 h, read-out: Plasma Cholesterol (% Control), 0.1% compound in food, 10 days, ca. 180 mg/kg daily, mouse
OBSERVATION_TYPE: change in vivo at 180 mg/kg/day (%)

MOLECULE	MEASURED_TARGET	OBSERVATION_TYPE	NUMBER
CCOP(=O)(OCC)C(NCCOc1ccccc1)c1cc(C(C)(C)C)c(O)c(C(C)(C)C)c1 (centres unmarked) [Compound 28]	plasma cholesterol	change in vivo at 180 mg/kg/day	4
CCOP(=O)(OCC)C(NC1COC(C)(C)OC1c1ccccc1)c1cc(C(C)(C)C)c(O)c(C(C)(C)C)c1 (centres unmarked) [Compound 91]	plasma cholesterol	change in vivo at 180 mg/kg/day	-18
CCCOP(=O)(OCCC)C(NCCc1ccc(Cl)cc1)c1cc(C(C)(C)C)c(O)c(C(C)(C)C)c1 (centres unmarked) [Compound 18]	plasma cholesterol	change in vivo at 180 mg/kg/day	-23
CCCOP(=O)(OCCC)C(NCCCc1ccccc1)c1cc(C(C)(C)C)c(O)c(C(C)(C)C)c1 (centres unmarked) [Compound 23]	plasma cholesterol	change in vivo at 180 mg/kg/day	-4
CCOP(=O)(OCC)C(NCCCc1ccccc1)c1ccc(O)c(O)c1 (centres unmarked) [Compound 78]	plasma cholesterol	change in vivo at 180 mg/kg/day	-5
CCOP(=O)(OCC)C(c1cc(C(C)(C)C)c(O)c(C(C)(C)C)c1)N(C)c1ccccc1 (centres unmarked) [Compound 50]	plasma cholesterol	change in vivo at 180 mg/kg/day	5
CCOP(=O)(OCC)C(NCc1cccnc1)c1cc(C(C)(C)C)c(O)c(C(C)(C)C)c1 (centres unmarked) [Compound 42]	plasma cholesterol	change in vivo at 180 mg/kg/day	-43
CCOP(=O)(OCC)C(NCCc1ccccc1)c1cc(C(C)CC)c(O)c(C(C)CC)c1 (centres unmarked) [Compound 73]	plasma cholesterol	change in vivo at 180 mg/kg/day	-40

====

# Test system: lipid peroxidation (rat liver homogenate)
# TEST_DESCRIPTION: Antioxidant activity, inhibition of iron induced lipid peroxidation in liver homogenate
# Type: biochemical, Wistar rat
# CONDITIONS: FeSO4, 37° C., 2 h; <25 μM where IC50 was not determined

MOLECULE	IC50
CCOP(=O)(OCC)C(NCCCc1ccccc1)c1ccc2c(c1)OCO2 (stereo not drawn) [Compound 80]	> 25 µM
CCOP(=O)(OCC)C(NCc1ccccc1)c1ccc(O)c(OC)c1 (stereo not drawn) [Compound 70]	> 25 µM
CC(C)(Sc1cc(C(C)(C)C)c(O)c(C(C)(C)C)c1)Sc1cc(C(C)(C)C)c(O)c(C(C)(C)C)c1 [Probucol]	> 25 µM
CCOP(=O)(OCC)C(Nc1ccc2c(c1)CCC2)c1cc(C(C)(C)C)c(O)c(C(C)(C)C)c1 (stereo not drawn) [Compound 47]	2.7 µM
CCOP(=O)(OCC)C(Nc1ccc(O)cc1)c1cc(C(C)(C)C)c(O)c(C(C)(C)C)c1 (stereo not drawn) [Compound 4]	4.1 µM
CCOP(=O)(OCC)C(c1cc(C(C)(C)C)c(O)c(C(C)(C)C)c1)N(CCc1ccccc1)C(=O)C(F)(F)F (stereo not drawn) [Compound 54]	< 25 µM
CCOP(=O)(OCC)C(NC(C)CCc1ccccc1)c1cc(C(C)(C)C)c(O)c(C(C)(C)C)c1 (stereo not drawn) [Compound 30]	15.6 µM
CCCCCc1ccc(NC(c2cc(C(C)(C)C)c(O)c(C(C)(C)C)c2)P(=O)(OCC)OCC)cc1 (stereo not drawn) [Compound 10]	2.9 µM
CCOc1ccc(NC(c2cc(C(C)(C)C)c(O)c(C(C)(C)C)c2)P(=O)(OCC)OCC)cc1 (stereo not drawn) [Compound 9]	< 25 µM
CCOP(=O)(OCC)C(NCCc1ccccc1)c1cc(C)c(O)c(C)c1 (stereo not drawn) [Compound 72]	> 25 µM
Cc1cc(C(C)(C)C)c(O)c(C(C)(C)C)c1 [BHT, 2,6-di-tert-butyl-4-methylphenol, reference compound]	5 µM
CCOP(=O)(OCC)C(NCCc1ccccc1)c1cc(C(C)CC)c(O)c(C(C)CC)c1 (stereo not drawn) [Compound 73]	2.9 µM
CCOP(=O)(OCC)C(NCCCc1ccccc1)c1ccc(O)c([N+](=O)[O-])c1 (stereo not drawn) [Compound 77]	> 25 µM
CCOP(=O)(OCC)C(Nc1ccc(N2C(=O)c3ccc(Cl)cc3C2=O)c(C)c1)c1cc(C(C)(C)C)c(O)c(C(C)(C)C)c1 (stereo not drawn) [Compound 11]	2.7 µM
CCCCOP(=O)(OCCCC)C(NCCc1ccc(Cl)cc1)c1cc(C(C)(C)C)c(O)c(C(C)(C)C)c1 (stereo not drawn) [Compound 20]	3.4 µM
CCOP(=O)(OCC)C(NC(C)(C)C)c1cc(C(C)(C)C)c(O)c(C(C)(C)C)c1 (stereo not drawn) [Compound 1]	> 25 µM
CCOP(=O)(OCC)C(Nc1ccc(OC)cc1)c1cc(C(C)(C)C)c(O)c(C(C)(C)C)c1 (stereo not drawn) [Compound 7]	< 25 µM
CCOP(=O)(OCC)C(Nc1ccc(Cl)cc1)c1cc(C(C)(C)C)c(O)c(C(C)(C)C)c1 (stereo not drawn) [Compound 6]	< 25 µM
CCOP(=O)(OCC)C(c1cc(C(C)(C)C)c(O)c(C(C)(C)C)c1)N(CCCCc1ccccc1)C(=O)C(F)(F)F (stereo not drawn) [Compound 66]	< 25 µM
CCOP(=O)(OCC)C(NCCCc1ccccc1)c1ccc(O)c(O)c1 (stereo not drawn) [Compound 78]	< 25 µM
CCOP(=O)(OCC)C(NCCc1ccc(C)cc1)c1cc(C(C)(C)C)c(O)c(C(C)(C)C)c1 (stereo not drawn) [Compound 14]	< 25 µM
CCOP(=O)(OCC)C(NCCc1ccc(O)cc1)c1cc(C(C)(C)C)c(O)c(C(C)(C)C)c1 (stereo not drawn) [Compound 15]	< 25 µM
COP(=O)(OC)C(NCCCc1ccccc1)c1cc(C(C)(C)C)c(O)c(C(C)(C)C)c1 (stereo not drawn) [Compound 21]	< 25 µM
CCOP(=O)(OCC)C(c1cc(C(C)(C)C)c(O)c(C(C)(C)C)c1)N(Cc1ccccc1)C(C)=O (stereo not drawn) [Compound 51]	< 25 µM
CCOP(=O)(OCC)C(Nc1nc2ccccc2s1)c1cc(C(C)(C)C)c(O)c(C(C)(C)C)c1 (stereo not drawn) [Compound 44]	< 25 µM
CCOP(=O)(OCC)C(Cc1cc(C(C)(C)C)c(O)c(C(C)(C)C)c1)NCCCc1ccccc1 (stereo not drawn) [Compound 68]	< 25 µM
CCOP(=O)(OCC)C(NCc1cccnc1)c1cc(C(C)(C)C)c(O)c(C(C)(C)C)c1 (stereo not drawn) [Compound 42]	12.8 µM
CCOP(=O)(OCC)C(NCc1ccc2c(c1)OCO2)c1cc(C(C)(C)C)c(O)c(C(C)(C)C)c1 (stereo not drawn) [Compound 38]	4.3 µM
CCOP(=O)(OCC)C(NCCCc1ccccc1)c1cc(C(C)(C)C)c(OC)c(C(C)(C)C)c1 (stereo not drawn) [Compound 67]	> 25 µM
CCOP(=O)(OCC)C(c1cc(C(C)(C)C)c(O)c(C(C)(C)C)c1)N(CCCc1ccccc1)C(C)=O (stereo not drawn) [Compound 60]	2.6 µM
CCOP(=O)(OCC)C(NCCCCc1ccccc1)c1cc(C(C)(C)C)c(O)c(C(C)(C)C)c1 (stereo not drawn) [Compound 27]	2.1 µM
CCOP(=O)(OCC)C(NCCCc1ccccc1)c1cc(C(C)(C)C)c(O)c(C(C)(C)C)c1 (stereo not drawn) [Compound 26]	< 25 µM
CCOP(=O)(OCC)C(NCCc1cccn1C)c1cc(C(C)(C)C)c(O)c(C(C)(C)C)c1 (stereo not drawn) [Compound 37]	4 µM

====

# System: plasma cholesterol
# TEST_DESCRIPTION: Hypocholesterolemic activity, plasma cholesterol in mice fed test compound in diet
# Assay type: in vivo, OF1 strain mice
# CONDITIONS: Mus musculus, feed or water, 240 h, read-out: Plasma Cholesterol (% Control), 0.1% compound in food, 10 days, ca. 180 mg/kg daily, mouse

MOLECULE	UNIT_ABBREV	change in vivo at 180 mg/kg/day
CCOP(=O)(OCC)C(Nc1ccc(Cl)cc1)c1cc(C(C)(C)C)c(O)c(C(C)(C)C)c1 (stereo not shown)	%	-17
CCOP(=O)(OCC)C(c1cc(C(C)(C)C)c(O)c(C(C)(C)C)c1)N(CCCc1ccccc1)C(C)=O (stereo not shown)	%	-49
CCOP(=O)(OCC)C(NCCc1ccccc1)c1cc(C)c(O)c(C(C)(C)C)c1 (stereo not shown)	%	-12
CCOP(=O)(OCC)C(NCCc1ccc(O)cc1)c1cc(C(C)(C)C)c(O)c(C(C)(C)C)c1 (stereo not shown)	%	-18
CCCOP(=O)(OCCC)C(c1cc(C(C)(C)C)c(O)c(C(C)(C)C)c1)N(CCCc1ccccc1)C(C)=O (stereo not shown)	%	-43
CCCCCNC(c1cc(C(C)(C)C)c(O)c(C(C)(C)C)c1)P(=O)(OCC)OCC (stereo not shown)	%	-8
CCOP(=O)(OCC)C(NC1CCN(Cc2ccccc2)CC1)c1cc(C(C)(C)C)c(O)c(C(C)(C)C)c1 (stereo not shown)	%	-6
CCOP(=O)(OCC)C(NCc1ccccc1)c1ccc(O)c(OC)c1 (stereo not shown)	%	-10
C=CCNC(c1cc(C(C)(C)C)c(O)c(C(C)(C)C)c1)P(=O)(OCC)OCC (stereo not shown)	%	-19
CCOP(=O)(OCC)C(Nc1ccc(O)cc1)c1cc(C(C)(C)C)c(O)c(C(C)(C)C)c1 (stereo not shown)	%	-15
CC(C)OP(=O)(OC(C)C)C(NCCCc1ccccc1)c1cc(C(C)(C)C)c(O)c(C(C)(C)C)c1 (stereo not shown)	%	-22
CCOP(=O)(OCC)C(Cc1cc(C(C)(C)C)c(O)c(C(C)(C)C)c1)NCCCc1ccccc1 (stereo not shown)	%	-18
CCOP(=O)(OCC)C(NCCc1ccccc1)c1cc(C(C)C)c(O)c(C(C)C)c1 (stereo not shown)	%	-16
CCOP(=O)(OCC)C(c1cc(C(C)(C)C)c(O)c(C(C)(C)C)c1)N(C)Cc1cccnc1 (stereo not shown)	%	-19
CCOP(=O)(OCC)C(NCCc1ccccn1)c1cc(C(C)(C)C)c(O)c(C(C)(C)C)c1 (stereo not shown)	%	-35
CCOP(=O)(OCC)C(NC(Cc1ccccc1)c1ccccc1)c1cc(C(C)(C)C)c(O)c(C(C)(C)C)c1 (stereo not shown)	%	-14
